B1: Transitional endoplasmic reticulum ATPase, residues 26 to 106; numbered along this chain, P55072 (parent)
chain: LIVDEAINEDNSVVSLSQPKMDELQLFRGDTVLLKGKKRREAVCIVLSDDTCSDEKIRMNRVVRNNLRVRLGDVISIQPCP

Variants of: B1
Experiment: abundance fitness (aPCA) (normalised: wild type 0, dead -1); higher = more abundant; growth selection in yeast, the domain comes from the species named
Conditions: Homo sapiens
Everything with abundance fitness lower than -0.2 is 0 (no); everything else, including exactly -0.2, is 1 (yes).

[ask] Reported abundance fitness reaches at least -0.2 for `S53H` ?
[reply] 1 (yes)

[ask] Input `I2D`
[reply] 0 (no)

[ask] Input `T51V`
[reply] 1 (yes)

[ask] Input `D10N`
[reply] 0 (no)

[ask] Input `L67D`
[reply] 0 (no)

[ask] Input `S12L`
[reply] 1 (yes)

[ask] Input `L67M`
[reply] 0 (no)

[ask] Input `R28N`
[reply] 1 (yes)

[ask] Input `P79A`
[reply] 1 (yes)

[ask] Input `K56W`
[reply] 0 (no)

[ask] Input `T51H`
[reply] 0 (no)

[ask] Input `V43P`
[reply] 0 (no)

[ask] Input `Q18E`
[reply] 1 (yes)

[ask] Input `V3K`
[reply] 0 (no)

[ask] Input `L24A`
[reply] 0 (no)

[ask] Input `S48V`
[reply] 1 (yes)

[ask] Input `R61Y`
[reply] 1 (yes)

[ask] Input `V74G`
[reply] 1 (yes)

[ask] Input `R28C`
[reply] 1 (yes)

[ask] Input `P19W`
[reply] 1 (yes)

[ask] Input `I7N`
[reply] 1 (yes)

[ask] Input `Q18F`
[reply] 1 (yes)
